assayTarget: T1, recombinant human TfR-1, His-tagged (Sino Biological 11020-H07H) (human, UniProt P02786 89-760)
T1 construct: bought; His-tagged; also called hTfR1; hTfR-1
T1 sequence (P02786 89-760 limits assumed): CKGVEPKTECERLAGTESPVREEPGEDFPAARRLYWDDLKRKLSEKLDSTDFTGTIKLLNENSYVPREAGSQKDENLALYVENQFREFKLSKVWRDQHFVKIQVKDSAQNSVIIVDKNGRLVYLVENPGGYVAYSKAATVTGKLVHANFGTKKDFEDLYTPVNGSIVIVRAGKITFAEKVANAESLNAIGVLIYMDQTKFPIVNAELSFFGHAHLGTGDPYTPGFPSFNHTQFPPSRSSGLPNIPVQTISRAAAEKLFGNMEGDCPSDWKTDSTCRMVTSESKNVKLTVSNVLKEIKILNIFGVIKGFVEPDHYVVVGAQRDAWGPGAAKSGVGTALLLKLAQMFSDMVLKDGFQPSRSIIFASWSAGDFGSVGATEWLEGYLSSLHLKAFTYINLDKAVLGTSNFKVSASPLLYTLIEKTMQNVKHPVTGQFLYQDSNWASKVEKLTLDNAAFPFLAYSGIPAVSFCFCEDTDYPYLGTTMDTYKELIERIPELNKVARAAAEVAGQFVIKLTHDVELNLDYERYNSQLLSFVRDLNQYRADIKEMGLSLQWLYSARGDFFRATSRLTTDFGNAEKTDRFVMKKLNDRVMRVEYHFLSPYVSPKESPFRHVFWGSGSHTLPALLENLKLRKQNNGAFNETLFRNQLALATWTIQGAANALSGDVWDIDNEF
testDescription: SPR, His-captured TfR1
Binning scheme for Kd: band 1 (below 0.6 nM), band 2 (0.6 nM to below 6 nM), band 3 (6 nM or more)

binder	labelClass
Clone C variant 5 VNAR-hFc (Fc fusion, not shown: a dimerising Fc or GST) ARVDQTPQTITKETGESLTINCVLRDSNCALSSTYWYRKKSGSTNEENISKGGRYVETVNSGSKSFSLRINDLTVEDSGTYRCNVVQSPSYNNYFWCDVYGDGTAVTVN	band 2
Clone C variant 15 VNAR-hFc (Fc fusion, not shown: a dimerising Fc or GST) ARVDQTPQTITKETGESLTINCVLRDSNCALSSTYWYRKKSGSTNEENISKGGRYVETVNSGSKSFSLRINDLTVEDSGTYRCNVVQYPQQPNYFWCDVYGDGTAVTVN	band 1
Clone C variant 11 VNAR-hFc (Fc fusion, not shown: a dimerising Fc or GST) ARVDQTPQTITKETGESLTINCVLRDSNCALSSTYWYRKKSGSTNEENISKGGRYVETVNSGSKSFSLRINDLTVEDSGTYRCNVVQYPHYNNYFWCDVYGDGTAVTVN	band 1
Clone C variant 14 VNAR-hFc (Fc fusion, not shown: a dimerising Fc or GST) ARVDQTPQTITKETGESLTINCVLRDSNCALSSTYWYRKKSGSTNEENISKGGRYVETVNSGSKSFSLRINDLTVEDSGTYRCNVVQYPQQDRPFWCDVYGDGTAVTVN	band 3
Clone C variant 3 VNAR-hFc (Fc fusion, not shown: a dimerising Fc or GST) ARVDQTPQTITKETGESLTINCVLRDSNCALSSTYWYRKKSGSTNEENISKGGRYVETVNSGSKSFSLRINDLTVEDSGTYRCNVVQHPSYNNYFWCDVYGDGTAVTVN	band 1
Clone C variant 19 VNAR-hFc (Fc fusion, not shown: a dimerising Fc or GST) ARVDQTPQTITKETGESLTINCVLRDSNCALSSTYWYRKKSGSTNEENISKGGRYVETVNSGSKSFSLRINDLTVEDSGTYRCNVVQYPRTNNYFWCDVYGDGTAVTVN	band 1
Clone C variant 2 VNAR-hFc (Fc fusion, not shown: a dimerising Fc or GST) ARVDQTPQTITKETGESLTINCVLRDSNCALSSTYWYRKKSGSTNEENISKGGRYVETVNSGSKSFSLRINDLTVEDSGTYRCNVLQRPSYNNYFWCDVYGDGTAVTVN	band 3
Clone C variant 13 VNAR-hFc (Fc fusion, not shown: a dimerising Fc or GST, also called Clone C v13; Clone C var; 13) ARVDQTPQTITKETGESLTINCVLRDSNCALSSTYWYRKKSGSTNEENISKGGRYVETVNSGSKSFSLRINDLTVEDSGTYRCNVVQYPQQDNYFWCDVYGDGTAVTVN	band 1
Clone C variant 6 VNAR-hFc (Fc fusion, not shown: a dimerising Fc or GST) ARVDQTPQTITKETGESLTINCVLRDSNCALSSTYWYRKKSGSTNEENISKGGRYVETVNSGSKSFSLRINDLTVEDSGTYRCNVVQWPSIQSPFWCDVYGDGTAVTVN	band 3
Clone C variant 10 VNAR-hFc (Fc fusion, not shown: a dimerising Fc or GST) ARVDQTPQTITKETGESLTINCVLRDSNCALSSTYWYRKKSGSTNEENISKGGRYVETVNSGSKSFSLRINDLTVEDSGTYRCNVVQYPFLENYFWCDVYGDGTAVTVN	band 2
Clone C variant 7 VNAR-hFc (Fc fusion, not shown: a dimerising Fc or GST) ARVDQTPQTITKETGESLTINCVLRDSNCALSSTYWYRKKSGSTNEENISKGGRYVETVNSGSKSFSLRINDLTVEDSGTYRCNVVQWPSLSSPFWCDVYGDGTAVTVN	band 2
Clone C variant 9 VNAR-hFc (Fc fusion, not shown: a dimerising Fc or GST) ARVDQTPQTITKETGESLTINCVLRDSNCALSSTYWYRKKSGSTNEENISKGGRYVETVNSGSKSFSLRINDLTVEDSGTYRCNVVQWPTLSSPFWCDVYGDGTAVTVN	band 3
Clone C variant 22 VNAR-hFc (Fc fusion, not shown: a dimerising Fc or GST) ARVDQTPQTITKETGESLTINCVLRDSNCALSSTYWYRKKSGSTNEENISKGGRYVETVNSGSKSFSLRINDLTVEDSGTYRCNVVQYPSNNNYFWCDVYGDGTAVTVN	band 3
Clone C variant 25 VNAR-hFc (Fc fusion, not shown: a dimerising Fc or GST) ARVDQTPQTITKETGESLTINCVLRDSNCALSSTYWYRKKSGSTNEENISKGGRYVETVNSGSKSFSLRINDLTVEDSGTYRCNVVQYPSYDNPFWCDVYGDGTAVTVN	band 3
Clone C variant 23 VNAR-hFc (Fc fusion, not shown: a dimerising Fc or GST) ARVDQTPQTITKETGESLTINCVLRDSNCALSSTYWYRKKSGSTNEENISKGGRYVETVNSGSKSFSLRINDLTVEDSGTYRCNVVQYPSQQNYFWCDVYGDGTAVTVN	band 2
